- system.under.test: T1, Human TIGIT protein with HIS tag (human, UniProt Q495A1 22-141)
- T1 construct: A soluble analyte is probably only the extracellular part; also called human TIGIT recombinant protein; not shown: HIS tag
- T1 sequence: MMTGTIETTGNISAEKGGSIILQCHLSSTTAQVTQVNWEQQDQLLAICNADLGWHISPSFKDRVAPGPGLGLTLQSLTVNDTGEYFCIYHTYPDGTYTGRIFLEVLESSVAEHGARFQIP
- assay.name: SPR Biacore T200; antibody Fc-captured, TIGIT-His analyte

# binder, kon / M⁻¹ s⁻¹
measured = [
    ("100C4E7D11VH1_VL1 (antibody, V domains shown, Humanized antibody, variable domains fused with the constant region of human IgG1; also called 100C4VH1_VL1) VH: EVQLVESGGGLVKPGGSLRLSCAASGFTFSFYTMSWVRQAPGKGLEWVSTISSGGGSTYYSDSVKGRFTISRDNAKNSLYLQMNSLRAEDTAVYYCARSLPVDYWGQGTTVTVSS VL: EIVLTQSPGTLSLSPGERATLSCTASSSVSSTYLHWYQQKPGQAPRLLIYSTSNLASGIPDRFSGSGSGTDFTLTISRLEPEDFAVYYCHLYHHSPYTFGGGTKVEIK", 610000),
]

Data origin, for the record: patent US20210095028A1
